test system: SK-OV-3; assay: Growth inhibition of human SKOV3 cells at 10 uM relative to control; type: functional; conditions: values are per cent of control
quantity_kind: growth, % of control at 10 µM (%)
Answers are plain numbers, in %.

Worked examples, 4 compounds total:
O=C(NO)c1cn(C/C=C/c2ccccc2)nn1 | 107
O=C(/C=C/c1cn(CC(=O)Nc2ccccc2)nn1)NO | 79.5
O=C(/C=C/c1cn(CC(=O)c2ccccc2)nn1)NO | 81.9
O=C(/C=C/c1cn(CCc2ccccc2)nn1)NO | 57

Proceeding to the next compound to report its growth, % of control at 10 µM.
Q: For the compound `O=C(Cn1cc(C(=O)NO)nn1)c1ccccc1` , report growth, % of control at 10 µM.
A: 109

Values from ChEMBL document CHEMBL1140227
